Field: normalised viability. Provide a value for each of the molecules that follow.
Test system: CAL-120
Assay: normalised viability (% of control), CellTiter-Blue; higher = more viable cells (about 100 = DMSO control)
Details: 100 nM; incubation time: 72 h
Number only, in %; omit the unit.

Kindly note the recorded normalised viability for CO[C@H]1C[C@@H]2CC[C@@H](C)[C@@](O)(O2)C(=O)C(=O)N2CCCC[C@H]2C(=O)O[C@H]([C@H](C)C[C@@H]2CC[C@@H](O)[C@H](OC)C2)CC(=O)[C@H](C)/C=C(\C)[C@@H](O)[C@@H](OC)C(=O)[C@H](C)C[C@H](C)/C=C/C=C/C=C/1C , which is 53.4

Kindly note the recorded normalised viability for NC1(c2ccc(-c3nc4ccn5c(=O)[nH]nc5c4cc3-c3ccccc3)cc2)CCC1 , which is 106

Kindly note the recorded normalised viability for CC(C)C[C@H](NC(=O)[C@H](CCc1ccccc1)NC(=O)CN1CCOCC1)C(=O)N[C@@H](Cc1ccccc1)C(=O)N[C@@H](CC(C)C)C(=O)[C@@]1(C)CO1 , which is 4.54

Kindly note the recorded normalised viability for O=C(O)CC[C@H]1CC[C@@](c2cc(F)ccc2F)(S(=O)(=O)c2ccc(Cl)cc2)CC1 , which is 97.2

---

System: CAL-120
Assay: normalised response (% of control), CellTiter-Glo; higher = more viable cells (100 = DMSO, 0 = benzethonium chloride kill control)
Settings: incubation time: 72 h
MEASURED METRIC: normalised response

// returns normalised response for CCCc1cc(C)[nH]c(=O)c1CNC(=O)c1cc(-c2ccnc(N3CCN(C)CC3)c2)cc2c1cnn2C(C)C [GSK343] (100 nM) with CAL-120; value = 94.6%

// returns normalised response for COc1cc2c(Oc3ccc(NC(=O)C4(C(=O)Nc5ccc(F)cc5)CC4)cc3F)ccnc2cc1OCCCN1CCOCC1 [Foretinib] (10 nM) with CAL-120; value = 102%

// returns normalised response for Cc1c(N)nc([C@H](CC(N)=O)NC[C@H](N)C(N)=O)nc1C(=O)N[C@H](C(=O)N[C@H](C)[C@@H](O)[C@H](C)C(=O)N[C@H](C(=O)NCCc1nc(-c2nc(C(=O)NCCC[S+](C)C)cs2)cs1)[C@@H](C)O)[C@@H](OC1OC(CO)C(O)C(O)C1OC1OC(CO)C(O)C(OC(N)=O)C1O)c1cnc[nH]1 (stereo partly drawn) [Bleomycin] (100 nM) with CAL-120; value = 95.3%

---

Test system: HCC1599
Test: normalised response (% of control), CellTiter-Glo; higher = more viable cells (100 = DMSO, 0 = benzethonium chloride kill control)
Conditions: incubation time: 72 h
MEASURED METRIC: normalised response (%)
Number only, in %; omit the unit.

Kindly note the recorded normalised response for CN1CCc2c(c3ccccc3n2Cc2ccc(C(=O)NO)cc2)C1 [Tubastatin A] (100 nM) , which is 99.2

Kindly note the recorded normalised response for Cn1cc(C[C@@H](N)C(=O)O)c2ccccc21 [1-methyl-D-tryptophan] (50 nM) , which is 92.6

Kindly note the recorded normalised response for C[C@@H]1C[C@H]2[C@@H]3CCC4=CC(=O)C=C[C@]4(C)[C@@]3(F)[C@@H](O)C[C@]2(C)[C@@]1(O)C(=O)CO [Dexamethasone] (100 nM) , which is 95.2

Kindly note the recorded normalised response for NC1(c2ccc(-c3nc4ccn5c(=O)[nH]nc5c4cc3-c3ccccc3)cc2)CCC1 [MK-2206] (10 nM) , which is 84.7

These entries and their values trace back to the supplement of paper PMC4862054.
